System: WaGa
Assay: qHTS assay to identify novel small-molecules to repurpose for Merkel cell carcinoma treatment (AID 1296009); also: nearly all actives have a fitted effect of over 60% in size; also: potency is read from the fitted curve at half-maximal effect
Conditions: MCC and control cell lines, CellTiter-Glo viability, 72 h; series mostly up to 46 µM
Results filed as inconclusive are left out. Activity calls are given as the source filed them. Calls follow the shape of the dose curve; as a rule, active = well fitted inhibition curve with a large enough effect; inconclusive = small, poorly fitted or top-dose-only effect; inactive = flat fitted curve, though single readings scatter.
measured_endpoint: Potency

molecule="Cn1c2cc(S(C)=O)sc2c2cnn(Cc3cccc(N)c3)c(=O)c21 (configuration not stated)" measured_endpoint=Potency result=inactive
molecule=CCN(CC)CCCCNc1ncc2cc(-c3cc(OC)cc(OC)c3)c(NC(=O)NC(C)(C)C)nc2n1 measured_endpoint=Potency result=inactive
molecule=O=C(O)Cn1nnc(-c2cc(N3CCC(Oc4cc(F)ccc4Br)CC3)no2)n1 measured_endpoint=Potency result=inactive
molecule=C[C@H]1C[C@@H]2[C@@H]([C@@H](O)C[C@@]3(C)[C@H]2CC[C@]3(O)C(=O)CO)[C@@]2(C)C=CC(=O)C=C12 measured_endpoint=Potency result=inactive
molecule=N#Cc1c(O)c2c(-c3ccc(-c4ccccc4O)cc3)csc2[nH]c1=O measured_endpoint=Potency result=inactive
molecule=COc1cccc(-c2ccc(NC(=O)C3=C(C(=O)O)CCC3)c(F)c2)c1 measured_endpoint=Potency result="23.5 µM (active)"
molecule=C[C@]1(CO)CN(c2cc(C(=O)Nc3ccc4c(c3)-c3c(c(C(N)=O)nn3-c3ccc(F)cc3)CC4)c(Cl)cn2)C[C@@]1(C)CO measured_endpoint=Potency result="18.7 µM (active)"
molecule="CC(NCc1ccc2c(c1)nc(NC(=O)c1ccc(-c3cn[nH]c3)s1)n2CC(C)(C)O)C(C)(C)C (configuration not stated)" measured_endpoint=Potency result="0.526 µM (active)"

Input line: Quick one: Potency of CNC(=O)c1nn(C)c2c1C(C)(C)Cc1cnc(Nc3ccc(N4CCN(C)CC4)cc3)nc1-2 ?
Output line: 5.9 µM (active)

The measured values listed here are drawn from PubChem BioAssay (NCATS).
